Molecular target: T1, cyno PRLR ECD-his6 protein (cyno)
T1 chain: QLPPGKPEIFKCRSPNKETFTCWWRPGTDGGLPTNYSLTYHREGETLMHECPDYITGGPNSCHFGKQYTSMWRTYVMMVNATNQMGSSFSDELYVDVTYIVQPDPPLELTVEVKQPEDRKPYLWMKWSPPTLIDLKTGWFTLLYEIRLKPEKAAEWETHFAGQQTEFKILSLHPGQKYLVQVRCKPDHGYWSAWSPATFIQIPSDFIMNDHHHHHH
Assay: ELISA on ECD
attribute.measured: pEC50
Units for pEC50: none; it is -log10 of a concentration expressed in mol/L.

Worked set:
{"binder": "Ab46 (antibody, human IgG1, kappa, V domains shown, humanized from Ab8; G1; also called Ab3 HC.1 and Ab3 LC.1b) VH: EVQLVQSGAEVKKPGASVKVSCKASGYTFTDYNIHWVRQAPGQGLEWMGYIYPNNDGTGYNQKFKSRVTMTTDTSTSTAYMELRSLRSDDTAVYYCARGDGNYVGDMDYWGQGTTVTVSS VL: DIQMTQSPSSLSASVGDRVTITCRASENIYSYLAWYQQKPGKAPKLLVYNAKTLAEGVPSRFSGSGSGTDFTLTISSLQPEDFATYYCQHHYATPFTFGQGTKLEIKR", "pEC50": 10.09}
{"binder": "Ab5 (antibody, V domains shown, murine monoclonal, isotype G2a; also called murine Ab5) VH: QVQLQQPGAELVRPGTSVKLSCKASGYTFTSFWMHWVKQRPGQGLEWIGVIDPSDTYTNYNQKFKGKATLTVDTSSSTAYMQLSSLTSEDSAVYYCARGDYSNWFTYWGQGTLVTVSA VL: DVVMTQTPLSLPVSLGDQASISCRSSQRLVHSNGNTYLHWYLQKPGQSPKLLIYKVSNRFSGVPDRFSGSGSGTDFTLKISRVEAEDLGVYFCSQSTHVPWTFGGGTKLEIK", "pEC50": 10.02}
{"binder": "Ab17 (antibody, human IgG1, kappa, V domains shown, humanized from Ab6; G1; also called Ab1 HC.1 and Ab1 LC.2a) VH: EVQLVQSGAEVKKPGSSVKVSCKASGYTFTTYWMHWVRQAPGQGLEWMGEIDPSDSYSNYNQKFKDRVTITADKSTSTAYMELSSLRSEDTAVYYCARNGGLGPAWFSYWGQGTLVTVSS VL: EIVMTQSPATLSVSPGERATLSCKASQYVGTAVAWYQQKPGQSPRLLIYSASNRYTGVPARFSDSGSGTEFTLTISSLQSEDFAVYFCQQYSSYPWTFGGGTKVEIKR", "pEC50": 10.10}
{"binder": "Ab30 (antibody, human IgG1, kappa, V domains shown, humanized from Ab5; G1; also called Ab2 HC.1a and Ab2 LC.1a) VH: EVQLVQSGAEVKKPGSSVKVSCKASGYTFTSFWMHWVRQAPGQGLEWIGVIDPSDTYTNYNQKFKGRATLTVDESSSTAYMELSSLRSEDTAVYYCARGDYSNWFTYWGQGTLVTVSS VL: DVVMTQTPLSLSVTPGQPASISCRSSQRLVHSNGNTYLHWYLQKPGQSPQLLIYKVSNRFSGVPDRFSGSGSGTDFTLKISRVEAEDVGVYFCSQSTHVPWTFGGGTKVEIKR", "pEC50": 10.00}

Next:
# lookup: pEC50 of Ab15 (antibody, human IgG1, kappa, V domains shown, humanized from Ab6; G1; also called Ab1 HC.1 and Ab1 LC.1a) VH: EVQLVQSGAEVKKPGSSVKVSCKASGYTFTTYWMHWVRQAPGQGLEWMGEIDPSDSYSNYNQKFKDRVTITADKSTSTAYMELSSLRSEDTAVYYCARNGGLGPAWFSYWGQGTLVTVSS VL: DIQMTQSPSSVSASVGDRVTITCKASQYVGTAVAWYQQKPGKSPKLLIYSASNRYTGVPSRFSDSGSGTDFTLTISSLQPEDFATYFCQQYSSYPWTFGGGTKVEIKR 10.26
